assay: in vitro; settings: mouse, microsomes, pH 7.4, MLM CLint, mouse liver microsomes
Tick 1.0 if microsomal CLint at 0.5 μM is 2000 µL/min/mg or greater. Tick 0.0 if microsomal CLint at 0.5 μM is less than 2000 µL/min/mg.

These recorded examples may help you get a feel for the data.
COc1ncccc1S(=O)(=O)N(Cc1ccc(F)cc1)Cc1ccccn1 [DNDI0003370084]    1.0
COc1ccc(C#N)cc1S(=O)(=O)N(Cc1ccc(F)cc1)Cc1ccccn1 [DNDI0003370083]    0.0
CCN(Cc1ccccc1)S(=O)(=O)c1ccccc1C#N [DNDI0002574585]    0.0
CCCCCOc1cc(C)c(Cl)cc1S(=O)(=O)NCc1cccs1 [DNDI0002572712]    0.0
CCN(Cc1ccccc1)S(=O)(=O)c1ccccc1OC(F)(F)F [DNDI0003364252]    1.0
C[S+]([O-])c1c(Cl)ccc2c1S(=O)(=O)N(Cc1ccccc1)CCO2 (centres unmarked) [DNDI0003578383]    0.0
COCCN(Cc1ccccc1)S(=O)(=O)c1ccccc1 [DNDI0003363821]    1.0

Here is another molecule to look at.
Reported microsomal CLint at 0.5 μM reaches at least 2000 µL/min/mg for CCCN(Cc1ccc(F)cc1)S(=O)(=O)c1cc([S+](C)[O-])ccc1OC (centres unmarked) [DNDI0003578384] ?
0.0
